The reported measurements were obtained from ChEMBL document CHEMBL5385844.

Papp A→B at 1 h, 10 µM listing for selected molecules.
- assayMethodText: Apparent permeability across apical to basolateral side in human Caco-2 cells at 10 uM incubated for 1 hr by LC-MS/MS analysis
- Type: ADME, cell-based

[
  {
    "smilesRecord": "N#CCc1cnc(-c2ccc3c(c2)CCO3)n1-c1ccnc(N[C@H]2CCCN(C(=O)C3CC3)C2)n1",
    "Papp A→B at 1 h, 10 µM / ×10⁻⁶ cm/s": 11
  },
  {
    "smilesRecord": "N#CCc1cnc(-c2ccc3ccccc3c2)n1-c1ccnc(N[C@H]2CCCN(C(=O)C3CC3)C2)n1",
    "Papp A→B at 1 h, 10 µM / ×10⁻⁶ cm/s": 13.7
  }
]
